Test system: m-IMCD3 cells
Experiment: Inhibition of PGE2-stimulated in vitro cyst formation in m-IMCD3 cells
Assay type: cell-based, mouse
Settings: Mus musculus, mIMCD3, 144 h, 10 μM; mean cyst area, 100% for (DMSO + PGE2) and 0% for DMSO control; 6 days of culture; read-out: % Cyst area after incubation with 10 μM test compound
Assay Endpoint: activity at 10 µM (%)
Just the number in %, nothing appended.

[ask] Name the recorded activity at 10 µM of the item O=C(CC1CCCC1)N1CCc2nc(C3CCNCC3)sc2C1 [Example 118] in your answer.
[reply] 5

[ask] Name the recorded activity at 10 µM of the item CC1(C)CCCN1C(=O)N1CCc2nc(N3C4CCC3CNC4)sc2C1 [Example 120] in your answer.
[reply] 2

[ask] Name the recorded activity at 10 µM of the item CC(C)[C@@H](C)C(=O)N1CCc2nc(N3C4CCC3CNC4)sc2C1 [Example 19] in your answer.
[reply] -2
